- assaySystem: ZZEF1
- procedureText: pooled miR-30 sensor sort-seq; sequence = guide strand
- experimentalContext: shRNA
quantity: sensor-assay potency score (higher = more potent)

| biosequence | readoutNumber |
| --- | --- |
| TTCTTGTTTTAGTATCTCCATG | -1.42 |
| TTAACCTCCTTACTATTCCGGT | -0.49 |
| TTCAGCTGCAGGTAGCACCAGG | -0.559 |
| TAGCACTTTGCTACTGACTTGA | 0.394 |
| TTAGTGTTTTATACAATCCTTT | -0.602 |
| TTATAGGCAAACACCAACCCAC | -0.586 |

###

- assaySystem: GPKOW
- procedureText: pooled miR-30 sensor sort-seq; sequence = guide strand
- experimentalContext: shRNA
Use -0.4 as the dividing line for sensor-assay potency score (higher = more potent), with the line itself on the yes side and lower values as no.

| biosequence | classification |
| --- | --- |
| TTCTCTTGGCAGTTGCACCAAA | no |
| TCTTCAATTATCATCTTGGTGT | yes |
| TCAATTATCATCTTGGTGTTGT | yes |
| TCACTAACAGTCACCACCCGGC | no |
| TACAGAACTGGTACCAGCCTGG | yes |
| TACATGTTGTCCACAAACCGCA | yes |

###

- assaySystem: HIST2H2AB
- procedureText: pooled miR-30 sensor sort-seq; sequence = guide strand
- experimentalContext: shRNA
quantity: sensor-assay potency score (higher = more potent)

| biosequence | assaySystem | readoutNumber |
| --- | --- | --- |
| TGGATATTGGGCAAGACGCCGC | HIST2H2AB | -1.14 |
| TGACTCTCCGTTTTCTTGGGCA | HIST2H2AB | 0.0701 |
| TTGGGCAACAGGACAGCCTGGA | HIST2H2AB | 0.319 |
| ACTTGTTGAGCTCTTCGTCATT | HIST2H2AB | -1.57 |
| TTGTGACTCTCCGTTTTCTTGG | HIST2H2AB | -0.765 |
| TTTTCTTGGGCAACAGGACAGC | HIST2H2AB | -1.07 |

###

Property: sensor-assay potency score (higher = more potent); scope: individual sequences
- assaySystem: SYT2
- procedureText: pooled miR-30 sensor sort-seq; sequence = guide strand
- experimentalContext: shRNA
quantity: sensor-assay potency score (higher = more potent)

| biosequence | readoutNumber |
| --- | --- |
| TTCTGAATCTGCTCGAAGGGGA | 0.015 |
| TATCTCATTGAATAACTTCTCC | -0.214 |
| TACCTGGACTTTCTGAATCTGC | -0.968 |
| TTGAATAACTTCTCCTTCAGTT | 0.105 |
| TTTCTGAATCTGCTCGAAGGGG | -0.751 |
| TTTGGTCTCATATTTCTTCTTC | 0.677 |
| TTGACATAAGGGTCTGAGGTGC | -0.653 |
| TTTGGCAAACATGTCCTCCTGA | 0.92 |
| TCTCATTGAATAACTTCTCCTT | -0.0548 |

###

- assaySystem: PRRX2
- procedureText: pooled miR-30 sensor sort-seq; sequence = guide strand
- experimentalContext: shRNA
The entries below are paired with their reported sensor-assay potency score (higher = more potent).
quantity: sensor-assay potency score (higher = more potent)

| biosequence | readoutNumber |
| --- | --- |
| TTGGTTTTAATACACAAACTAA | -1.05 |
| TTTTCTATTGCTGTCCACCCAG | -0.328 |
| TCGCTGAGGTTGACGCGCCGGG | -1 |
| TAGGACTTGAGCAGCGAGGCAG | -0.751 |
| TAGGGTGGCACTGTGCTGTAGG | 0.726 |
| ATAATCTGGACTCAGGGCGGTG | -1.16 |
| TTTCTATTGCTGTCCACCCAGG | -1.08 |
| TAGGGGGACGAGGCTGTCCAGG | -1.31 |
| TTCTTCTTCCGCTTGGCGGCGC | -0.268 |

Just for reference, the OligoGym collection is where these values come from.
